Values from patent US9056840B2

Listing: Coelenteramide (EDTA-containing buffer) Maximum fluorescence wavelength λmax (nm) of selected compounds
# EXPERIMENT_SUMMARY: Fluorescence spectra of coelenteramide analogue alone (absence of apoaequorin)
# Format: physicochemical
# RUN_PARAMETERS: analogue alone 8 μg/ml, 10 mM EDTA buffer pH 7.6, excitation 337 nm
QUANTITY_MEASURED: Coelenteramide (EDTA-containing buffer) Maximum fluorescence wavelength λmax (nm)

SMILES_STRING | NUMERIC_RESULT
O=C(Cc1ccc(O)cc1)Nc1ncc(-c2ccc(O)cc2)nc1-c1ccc2ccccc2c1 | 478.0
O=C(Nc1ncc(-c2ccc(O)cc2)nc1Cc1ccccc1)c1cccc(O)c1 | 456.0
O=C(Nc1ncc(-c2ccc(O)cc2)nc1Cc1ccccc1)c1ccc(O)cc1 | 449.0
O=C(Cc1ccc(O)cc1)Nc1ncc(-c2ccc(O)cc2)nc1-c1cc2sccc2s1 | 487.5
